- target_under_test: human Farnesoid X Receptor (FXR) ligand binding domain (GST-FXR LBD) (Homo sapiens, UniProt Q96RI1)
- Construct: purchased Invitrogen
- Sequence (Q96RI1 193-472 isoform Q96RI1-2): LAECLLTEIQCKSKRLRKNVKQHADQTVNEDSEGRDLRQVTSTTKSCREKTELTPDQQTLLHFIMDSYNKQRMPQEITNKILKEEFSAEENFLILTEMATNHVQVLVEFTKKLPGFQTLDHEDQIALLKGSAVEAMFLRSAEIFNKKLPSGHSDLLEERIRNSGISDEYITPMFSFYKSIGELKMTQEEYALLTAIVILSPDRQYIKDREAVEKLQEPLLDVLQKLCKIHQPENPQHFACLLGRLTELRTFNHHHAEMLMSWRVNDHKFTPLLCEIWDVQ
- test_method_notes: Human GST-FXR LBD co-activator interaction assay (HTRF)
- Type: biochemical
- conditions_used: GST-FXR LBD / biotin-SRC-1 peptide FRET; response relative to GW4064; read-out: FXR Co-activator interaction assay (EC50)
recorded_metric: EC50 (nM)
Write down the numeric answer in nM and omit the unit.

In the examples that follow, each entry is paired with its recorded EC50.
O=C(O)c1cc(F)c(N2[C@@H]3CC[C@H]2C[C@@H](OCc2c(-c4c(F)cccc4F)noc2C2CC2)C3)c(F)c1 [Example 25-4B]	2
O=C(O)c1cnn2ccc(N3C4CC[C@H]3CC(OCc3c(-c5ccccc5OC(F)(F)F)noc3C3CC3)C4)nc12 (stereo partly shown) [Example 30-59]	92
O=C(O)c1cnc(N2C3CC[C@H]2C[C@H](OCc2c(-c4ccccc4OC(F)(F)F)noc2C2CC2)C3)cc1C(F)(F)F [Example 19-3B]	10

Next:
// query What measured EC50 goes with O=C(NCCS(=O)(=O)O)c1cc(F)c2nc(N3C4CC[C@H]3C[C@H](OCc3c(-c5ccccc5OC(F)(F)F)noc3C3CC3)C4)sc2c1 [Example 16-2] ?
// result 0.4
